Where these numbers come from: patent US8293218B2

tested on: Melanoderm tissue equivalent model MEL-300 containing melanocytes obtained from dark skin individuals; assay: Melanoderm tissue equivalent model MEL-300, total melanin content (inhibition of melanogenesis); type: cell-based; conditions: Melanocyte, 336 h; 10 μM in maintenance medium, 14 days, total melanin content vs DMSO vehicle control; read-out: Melanoderm (% Reduction at 10 μM)
Assign true (1) whenever inhibition at 10 µM does not fall below 50%; assign false (0) whenever it does.

Ask: Item c1ccc(CCNCc2cccc(Oc3ccccc3)c2)cc1 with inhibition at 10 µM of 50% or above?
Result: true (1)

---

test system: Melanoderm tissue equivalent model MEL-300 containing melanocytes obtained from dark skin individuals; experiment: Melanoderm tissue equivalent model MEL-300, total melanin content (inhibition of melanogenesis); assay type: cell-based; settings: Melanocyte, 336 h; 10 μM in maintenance medium, 14 days, total melanin content vs DMSO vehicle control; read-out: Melanoderm (% Reduction at 10 μM)
measurementKind: inhibition at 10 µM
Give the value; after it, write the unit.

The following compounds have reported results that may help.
smilesStr | inhibition at 10 µM
COc1ccc(CCNCCc2ccccc2)cc1OC | 53.1%
COc1ccc(CNCCC(C)C)cc1OC | 1.9%
COc1ccc(CN(C)CCc2ccccc2)cc1OC | 44.4%

Ask: Which inhibition at 10 µM value belongs to c1ccc(CCNCC2CCCCC2)cc1 ?
Result: 69.5%

Ask: Which inhibition at 10 µM value belongs to COc1ccc(CNCCc2ccccc2)cc1OC ?
Result: 40.3%
